The reported numbers originate from a melting point compilation (Tetko et al.; mined from patent text by program, amines drawn as free bases though some values may be those of a salt).

Some compounds, each annotated with its measured melting point.

Consider the reported melting point for these compounds:
compound	val
COc1ccc(C2=NN(CC(=O)Nc3cccc(-c4nnc(=O)sc4C)c3)C(=O)[C@H]3CC=CC[C@@H]23)cc1OC (relative stereo)	157 to 161 °C
O=Cc1cc(C=O)c(C#Cc2ccccc2)cc1C#Cc1ccccc1	170 to 172 °C
COC(=O)c1ccc(C(=O)Nc2ccc3c(c2)C(C)(C)CCC3(C)C)nc1	176 to 177 °C
CNCCOc1cccc2c1c1cc(C)ccc1n2Cc1ccccc1	96 to 96.8 °C
CC(C)(C)c1ccc(C(=O)n2c3cc(O)c(O)cc3c3c(Br)cc(O)c(O)c32)cc1	> 280 °C
Cc1cc(C)c2c(c1)nc(NC1CCN(CCO)CC1)n2Cc1nc(C)ccc1O	143 °C
CC(C)(C)OC(=O)NC(CCOP(=O)(Oc1ccccc1)Oc1ccccc1)C(=O)OCc1ccccc1 (racemic)	63.5 to 64 °C

Next item in the queue.
Recorded result, O=C(OC1C(OCCBr)OC(COCc2ccccc2)C(O)C1OC(=O)c1ccccc1)c1ccccc1 (stereo not drawn) , melting point: 78 to 80 °C

###

observation.type: melting point

Consider the reported melting point for these molecules:
molecule	melting point
O=C(O)c1cc(-c2ccc(OCc3ccccc3)cc2)nn1Cc1ccccc1	207 to 208 °C
CCOc1cc(CN2CCN(c3ccc(C(=O)NC4CC4)cc3C)CC2)cc2c1OC(C)C(=O)N2 (centres undefined)	223 to 224 °C
COc1ccc(-c2csc(C=CC(=O)O)c2)cc1C(C)(C)C	206 to 207 °C
CC(=O)C1=C(O)C(=C(C)Nc2ccc(O)cc2)C(=O)OC1=O	223 to 225 °C
CC(C)c1nc(CCCl)n(C)c1Sc1cc(Cl)cc(Cl)c1	101 to 102 °C
Cc1cc(SCc2ccnc3[nH]c(-c4ccc(C(F)(F)F)cc4)nc23)ccc1OCC(=O)O	239 to 241 °C
Cc1ccc(-c2nc(CCOc3ccc(CN(O)C(N)=O)cc3)c(C)o2)cc1	145 to 146 °C
O=C1Cc2cc([N+](=O)[O-])ccc2Sc2cc(Br)ccc21	242 to 245 °C
Cc1c(OCC(F)(F)F)ccnc1CS(=O)c1nc2ccccc2n1N (centres undefined)	111 to 113 °C
Cc1ccc(S(=O)(=O)OCC2COc3ccc4c(=O)ccoc4c3O2)cc1 (centres undefined)	190 to 191 °C

Recorded result, CC(C)(C)OC(=O)NC(Cc1ccccc1)C(O)C(O)C(Cc1ccccc1)NC(=O)OC(C)(C)C (centres undefined) , melting point: 208 to 212 °C

Recorded result, O=C1c2c(O)cccc2C(SCC(O)CO)c2cccc(O)c21 (centres undefined) , melting point: 154 to 155 °C

Recorded result, "Cc1nnc2n1-c1sc(Cl)cc1C(c1ccccc1F)=NC2" , melting point: 187 to 189 °C

Recorded result, "COc1ccc(-c2cc3cc(F)c(F)cc3[nH]2)cc1NS(=O)(=O)c1cccc(C#N)c1" , melting point: 239 to 242 °C

Recorded result, "c1ccc(-c2onc3ccc(Oc4ccc5noc(-c6ccccc6)c5c4)cc23)cc1" , melting point: 158 to 165 °C

Recorded result, "O=C(NO)c1ccc(OCCNS(=O)(=O)c2ccc(C(=O)Nc3ccc(Cl)c(-c4ccccn4)c3)c(Cl)c2)cc1" , melting point: 138 to 139 °C

Recorded result, "O=C(NCCc1cccs1)c1cc(Cl)ccc1Cl" , melting point: 99 to 100 °C

Recorded result, CC(C)C1(C)N=C(c2ccccc2C(=O)O)N(O)C1=O (centres undefined) , melting point: 186 to 188 °C

Recorded result, "Cc1ccccc1C(=O)N(c1ccccc1)c1ccc(OCCN(C)C)cc1" , melting point: 98.5 to 102 °C

Recorded result, CN(C)C1=NC(NC(=O)CC2CCCCC2)C(=O)N(c2ccccc2)c2ccccc21 (centres undefined) , melting point: 264 to 266 °C

Recorded result, "COc1ccccc1NC(=O)c1ccc(CN2CCOCC2)cc1" , melting point: 90 to 93.5 °C

Recorded result, "NC(=O)c1cccc(OCCCCCCCc2ccsc2)c1" , melting point: 97 to 100 °C

Recorded result, "Nc1ncnc2c1ncn2CC(=O)Nc1ccc(-n2nc(C(F)(F)F)cc2C2CC2)cc1" , melting point: 249 to 252 °C

Recorded result, "O=C1C(c2cccn2Cc2ccccc2)=CC(=O)c2ncccc21" , melting point: 172 to 173 °C

Recorded result, COC1CC(N)(C(=O)O)C2C(C(=O)O)C12 (centres undefined) , melting point: > 275 °C

Recorded result, "Cc1ccc(-c2ccc(Cl)cc2)cc1-c1c(O)cnn(C)c1=O" , melting point: > 250 °C
